Source listed as patent US8569267B2.

# measured target: NET (norepinephrine transporter) (Rattus norvegicus)
# Construct: Cortex from rat brain was collected and homogenised; from tissue; host or cells: rat brain cortex
# experiment: In vitro determination of NET reuptake inhibition ([3H]Nixosetine binding, rat brain cortex)
# measurement setup: rat brain cortex, read-out: NET pIC50 (converted)
measurement type: IC50 (µM)
Express it in µM; write the number only.

O=C(NC1CCCCC1)N1CCN(CC2CC3c4ccccc4Cc4ccc(F)cc4C3O2)CC1 (stereo not drawn) [Compound 95]	9.55
CN(C)C1CCN(CC2CC3c4ccccc4Cc4ccc(F)cc4C3O2)C1 (mixture of isomers) [Compound 9]	4.57
O=C(NC1CCCCCC1)C1CCN(CC2CC3c4ccccc4Cc4ccc(F)cc4C3O2)CC1 (stereo not drawn) [Compound 193]	5.25
Fc1ccc2c(c1)C1OC(CN3CCC(N4CCCCC4)CC3)CC1c1ccccc1C2 (stereo not drawn) [Compound 172]	6.76

So, O=C(Nc1cccc2cnccc12)C1CCN(CC2CC3c4ccccc4Cc4ccc(F)cc4C3O2)CC1 (stereo not drawn) [Compound 192] ? Its IC50 was 7.41

Briefly, IC50 measured for CS(=O)(=O)CCCCNC(=S)NC1CCN(CC2CC3c4ccccc4Cc4ccc(F)cc4C3O2)CC1 (stereo not drawn) [Compound 251] : 3.63

# IC50 (compound: O=C(NC1CCN(CC2CC3c4ccccc4Cc4ccc(F)cc4C3O2)CC1)c1cccc(Cl)c1Cl (stereo not drawn) [Compound 228] ) is 7.94

The reported IC50 of the compound O=C(NC1CC1)N1CCN(CC2CC3c4ccccc4Cc4ccc(F)cc4C3O2)CC1 (stereo not drawn) [Compound 94] was 10.7

---

The reader will find reported IC50 values listed item by item below.
# measured target: NET (norepinephrine transporter) (Rattus norvegicus, UniProt Q63380)
# Construct: Cortex from rat brain was collected and homogenised; from tissue; host or cells: rat brain cortex
# Sequence (Q63380 1-617): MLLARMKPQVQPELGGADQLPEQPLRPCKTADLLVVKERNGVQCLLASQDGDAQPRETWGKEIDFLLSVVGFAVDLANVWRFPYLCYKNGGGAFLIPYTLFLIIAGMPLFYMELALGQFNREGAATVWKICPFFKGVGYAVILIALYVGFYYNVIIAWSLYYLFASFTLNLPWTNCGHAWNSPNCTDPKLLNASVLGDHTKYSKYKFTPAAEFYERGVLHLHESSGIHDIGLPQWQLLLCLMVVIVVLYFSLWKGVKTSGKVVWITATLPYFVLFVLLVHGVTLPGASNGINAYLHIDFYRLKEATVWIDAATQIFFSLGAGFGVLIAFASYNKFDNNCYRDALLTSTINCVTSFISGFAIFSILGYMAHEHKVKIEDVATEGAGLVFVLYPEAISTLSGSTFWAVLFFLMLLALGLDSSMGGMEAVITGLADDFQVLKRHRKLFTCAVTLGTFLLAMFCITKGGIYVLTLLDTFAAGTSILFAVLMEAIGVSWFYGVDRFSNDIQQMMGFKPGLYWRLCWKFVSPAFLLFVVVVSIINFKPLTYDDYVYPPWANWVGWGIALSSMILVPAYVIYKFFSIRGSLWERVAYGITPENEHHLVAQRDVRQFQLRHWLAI
# experiment: In vitro determination of NET reuptake inhibition ([3H]Nixosetine binding, rat brain cortex)
# measurement setup: rat brain cortex, read-out: NET pIC50 (converted)
# Procedure: In Vitro Determination of NET Reuptake Inhibition Cortex from rat brain was collected and homogenised using an Ultra-Turrax T25 and a Dual homogeniser in ice-cold homogenising buffer containing Tris, NaCl and KCl (50 mM, 120 mM and 5 mM, respectively, pH 7.4) prior to dilution to an appropriate protein concentration optimised for specific and non-specific binding. […] Percentage specific bound and competition binding curves were calculated using S-Plus software (Insightful).
API: value field is a number in µM; no unit string.

The following compounds have reported results that may help.
Fc1ccc2c(c1)C1OC(CN3CCN(c4cnccn4)CC3)CC1c1ccccc1C2 (stereo not drawn) [Compound 123]	2.82
Fc1ccc2c(c1)C1OC(CN3CCN(Cc4ccsc4)CC3)CC1c1ccccc1C2 (stereo not drawn) [Compound 59]	1.26

# evaluate next
Recorded IC50 (compound COc1ccccc1OC1CCN(CC2CC3c4ccccc4Cc4ccc(F)cc4C3O2)C1 (mixture of isomers) [Compound 32] ): 7.41

---

# measured target: human cloned 5-HT2A receptor, expressed in L929 cells (Homo sapiens, UniProt P28223)
# Construct: expressed in transfected cells; host or cells: L929 cells
# Sequence (P28223 whole entry): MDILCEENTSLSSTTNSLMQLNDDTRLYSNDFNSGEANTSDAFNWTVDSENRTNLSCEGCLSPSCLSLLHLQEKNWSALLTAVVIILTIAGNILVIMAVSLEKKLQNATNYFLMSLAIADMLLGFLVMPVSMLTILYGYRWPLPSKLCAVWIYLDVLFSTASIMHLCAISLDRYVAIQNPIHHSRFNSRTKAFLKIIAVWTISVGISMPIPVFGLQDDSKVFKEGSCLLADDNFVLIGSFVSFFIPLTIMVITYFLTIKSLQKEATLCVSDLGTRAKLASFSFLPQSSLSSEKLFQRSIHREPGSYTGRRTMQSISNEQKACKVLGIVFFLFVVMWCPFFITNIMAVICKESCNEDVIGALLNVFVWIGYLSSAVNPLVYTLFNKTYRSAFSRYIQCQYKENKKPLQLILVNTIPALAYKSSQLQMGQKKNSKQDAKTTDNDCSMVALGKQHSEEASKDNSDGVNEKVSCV
# experiment: In vitro binding affinity for 5-HT2A receptor ([125I]R91150 radioligand binding)
# measurement setup: human cloned 5-HT2A receptor in L929 cells, [125I]R91150
measurement type: 5-HT2A pIC50
When you answer, write just the number.

Fc1ccc2c(c1)[C@@H]1O[C@@H](CN3CCCNCC3)C[C@@H]1c1ccccc1C2.O=C(O)C(=O)O.O=C(O)C(=O)O	7.84

# 5-HT2A pIC50 (compound: Fc1ccc2c(c1)C1OC(CN3CCN(Cc4ccoc4)CC3)CC1c1ccccc1C2.O=C(O)C(F)(F)F (stereo not shown) ) is 8.03

Query O=C(O)C(=O)O.OC1CCN(CC2CC3c4ccccc4Oc4ccc(Cl)cc4C3O2)CC1 (stereo not shown) [Compound 284] yields 5-HT2A pIC50 of 7.98

# compound Fc1ccc2c(c1)[C@@H]1O[C@@H](CN3CC=CC3)C[C@@H]1c1ccccc1C2.O=C(O)C(=O)O ; its 5-HT2A pIC50 = 8.09
